biological target: human blood platelet PDE5 (Homo sapiens, UniProt O76074); construct: obtained by suitably treating various tissues and separating the enzyme with FPLC; from tissue; host or cells: human blood platelets; experiment: PDE5 enzyme inhibition activity test (scintillation proximity); assay type: biochemical; details: as repeated in the PDE6 table
pIC50 values by entry
Value format note: pIC50 is -log10 of concentration (mol/L); just state the number.

These solved cases illustrate the format of a correct answer.
{"molecule": "CCCOc1ccc(C(=O)N2CCN(C)CC2)cc1-c1nc(CC)c(CC)c(=O)[nH]1 [Example 205]", "pIC50": 8.71}
{"molecule": "CCCOc1ccc(C(=O)N2CCOCC2)cc1-c1nc(C(C)C)c(Br)c(=O)[nH]1 [Example 63]", "pIC50": 8.91}

Incoming: Lab note: need pIC50 with human blood platelet PDE5 (Homo sapiens, UniProt O76074) for entry CCCOc1ccc(C(=O)NC(CC(N)=O)C(=O)O)cc1-c1nc(CC)c(CC)c(=O)[nH]1 (centres unmarked) [Example 146] , please look it up.
Outgoing: 9.03

Incoming: Lab note: need pIC50 with human blood platelet PDE5 (Homo sapiens, UniProt O76074) for entry CCCOc1ccc(S(=O)(=O)NC(C)C(=O)OCC)cc1-c1nc(CC)c(CC)c(=O)[nH]1 (centres unmarked) [Example 123] , please look it up.
Outgoing: 9.31

Incoming: Lab note: need pIC50 with human blood platelet PDE5 (Homo sapiens, UniProt O76074) for entry CCCOc1ccc(NC(=O)C(Cc2ccccc2)NC(C)=O)cc1-c1nc(CC)c(CC)c(=O)[nH]1 (centres unmarked) [Example 110] , please look it up.
Outgoing: 8.55

---

biological target: PDE6 in bovine retina (Bos taurus, UniProt P11541+P23439); construct: obtained by suitably treating various tissues and separating the enzyme with FPLC; from tissue; host or cells: bovine retina; assay: PDE6 enzyme inhibition activity test (scintillation proximity); format: biochemical; details: selectivity, ratio of IC50 PDE6/IC50 PDE5
Sequence (P11541 2-856 limits assumed): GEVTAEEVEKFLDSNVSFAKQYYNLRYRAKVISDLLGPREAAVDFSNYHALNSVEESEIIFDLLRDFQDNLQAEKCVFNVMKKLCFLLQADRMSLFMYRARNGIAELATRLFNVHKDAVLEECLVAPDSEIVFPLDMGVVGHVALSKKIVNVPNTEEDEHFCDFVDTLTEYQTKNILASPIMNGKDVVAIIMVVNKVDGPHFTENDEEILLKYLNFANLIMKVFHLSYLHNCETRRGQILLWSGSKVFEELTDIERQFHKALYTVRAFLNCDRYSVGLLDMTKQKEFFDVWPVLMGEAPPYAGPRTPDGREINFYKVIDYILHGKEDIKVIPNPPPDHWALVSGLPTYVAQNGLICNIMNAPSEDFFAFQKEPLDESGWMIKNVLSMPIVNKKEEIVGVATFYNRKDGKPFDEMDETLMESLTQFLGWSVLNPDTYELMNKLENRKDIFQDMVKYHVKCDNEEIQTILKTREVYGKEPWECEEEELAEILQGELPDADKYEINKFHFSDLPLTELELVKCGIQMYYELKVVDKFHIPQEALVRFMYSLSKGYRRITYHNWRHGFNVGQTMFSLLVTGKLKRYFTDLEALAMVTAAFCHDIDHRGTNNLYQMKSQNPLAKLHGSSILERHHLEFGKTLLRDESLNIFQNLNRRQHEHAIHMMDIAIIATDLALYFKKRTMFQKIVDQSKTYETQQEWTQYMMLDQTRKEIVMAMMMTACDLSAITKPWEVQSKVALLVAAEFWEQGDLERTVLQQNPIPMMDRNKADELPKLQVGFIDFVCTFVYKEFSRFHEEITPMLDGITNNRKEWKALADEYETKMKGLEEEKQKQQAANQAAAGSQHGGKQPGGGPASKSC
Sequence (P23439 2-850 limits assumed): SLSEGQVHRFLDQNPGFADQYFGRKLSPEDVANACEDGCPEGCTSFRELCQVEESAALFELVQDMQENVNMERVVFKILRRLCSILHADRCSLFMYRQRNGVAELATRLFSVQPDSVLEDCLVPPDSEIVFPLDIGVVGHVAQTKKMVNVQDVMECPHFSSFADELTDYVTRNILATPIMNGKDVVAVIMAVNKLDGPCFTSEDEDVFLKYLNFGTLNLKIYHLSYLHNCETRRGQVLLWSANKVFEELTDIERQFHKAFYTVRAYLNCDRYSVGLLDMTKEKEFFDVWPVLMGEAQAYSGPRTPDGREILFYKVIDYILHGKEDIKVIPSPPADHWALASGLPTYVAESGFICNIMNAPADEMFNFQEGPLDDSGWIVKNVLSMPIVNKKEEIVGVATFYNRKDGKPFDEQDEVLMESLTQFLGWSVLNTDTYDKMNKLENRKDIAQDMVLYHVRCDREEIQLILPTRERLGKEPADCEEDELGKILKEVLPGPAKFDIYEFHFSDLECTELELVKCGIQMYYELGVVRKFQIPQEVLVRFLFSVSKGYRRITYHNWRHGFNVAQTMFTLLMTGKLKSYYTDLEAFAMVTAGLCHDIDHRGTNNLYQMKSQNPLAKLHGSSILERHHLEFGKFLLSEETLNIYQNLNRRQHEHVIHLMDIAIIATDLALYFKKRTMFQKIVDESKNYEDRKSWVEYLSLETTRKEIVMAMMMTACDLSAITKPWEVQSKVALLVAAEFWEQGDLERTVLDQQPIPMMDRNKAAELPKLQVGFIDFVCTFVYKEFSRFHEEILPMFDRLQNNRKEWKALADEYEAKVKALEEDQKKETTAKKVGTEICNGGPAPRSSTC
readout_kind: PDE6 IC50/PDE5 IC50
Answer with a number only.

These solved cases illustrate the format of a correct answer.
{"compound": "CCCOc1ccc(C(=O)NCCCS(=O)(=O)O)cc1-c1nc(CC)c(CC)c(=O)[nH]1", "subject_of_test": "PDE6 in bovine retina (Bos taurus, UniProt P11541+P23439)", "numeric_readout": 91.3}
{"compound": "CCCOc1ccc(C(=O)NC(C)CO)cc1-c1nc(CC)c(CC)c(=O)[nH]1 (centres unmarked)", "subject_of_test": "PDE6 in bovine retina (Bos taurus, UniProt P11541+P23439)", "numeric_readout": 15.6}
{"compound": "CCCOc1ccc(C(=O)N2CCCC2C(N)=O)cc1-c1nc(CC)c(CC)c(=O)[nH]1 (centres unmarked)", "subject_of_test": "PDE6 in bovine retina (Bos taurus, UniProt P11541+P23439)", "numeric_readout": 15.1}
{"compound": "CCCOc1ccc(C(=O)N2CCN(CCO)CC2)cc1-c1nc(CC)c(CC)c(=O)[nH]1", "subject_of_test": "PDE6 in bovine retina (Bos taurus, UniProt P11541+P23439)", "numeric_readout": 68.7}
{"compound": "CCCOc1ccc(S(=O)(=O)NCCCS(=O)(=O)O)cc1-c1nc(CC)c(CC)c(=O)[nH]1", "subject_of_test": "PDE6 in bovine retina (Bos taurus, UniProt P11541+P23439)", "numeric_readout": 28.6}

Incoming: Lab note: need PDE6 IC50/PDE5 IC50 with PDE6 in bovine retina (Bos taurus, UniProt P11541+P23439) for entry "CCCOc1ccc(NC(=S)NCC)cc1-c1nc(CC)c(CC)c(=O)[nH]1" , please look it up.
Outgoing: 11.5

Incoming: Lab note: need PDE6 IC50/PDE5 IC50 with PDE6 in bovine retina (Bos taurus, UniProt P11541+P23439) for entry CCCOc1ccc(C(=O)NC(Cc2ccc(O)cc2)C(=O)OC)cc1-c1nc(CC)c(CC)c(=O)[nH]1 (centres unmarked) , please look it up.
Outgoing: 7.5

Incoming: Lab note: need PDE6 IC50/PDE5 IC50 with PDE6 in bovine retina (Bos taurus, UniProt P11541+P23439) for entry CCCOc1ccc(C(=O)NC(C)C(=O)N2CCN(C)CC2)cc1-c1nc(CC)c(CC)c(=O)[nH]1 (centres unmarked) , please look it up.
Outgoing: 94.6

Source of measurements: patent US8871777B2
